- assay text: chemical genetic growth profiling, strain panel (AID 1159580);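 also: tested at 20 µM; growth read once vehicle control cultures reached saturation at 30 °C; 1 = growth at the plate median or of vehicle wells; lower values mean less growth of the strain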
- applied conditions: S. cerevisiae deletion strains, growth OD, locus YJL154C, strain vps35
The whole screen tested about 5,500 compounds, of which about 2,000 (36%) were called active. Inconclusive results (about 18%) are left out. Rule as the data show it: active = normalized growth mostly below about 0.91 (no sharp cut-off); inconclusive = no clear call, values can overlap the other calls; inactive = mostly above about 0.92. Some of the results follow.
Outcomes: true for active, false for inactive

INSERT INTO measurements (molecule, class_assignment) VALUES
  ('C[C@]12CCC(=O)C=C1CCC1C2CC[C@@]2(C)C1CC[C@@H]2O (stereo not given in full)', 'false'),
  ('O=C1C=CC(=C(c2ccc(O)cc2)c2ccc(O)cc2)C=C1', 'false'),
  ('CN(C)c1ccc(C(=C2C=CC(=[N+](C)C)C=C2)c2ccc(N(C)C)cc2)cc1', 'true'),
  ('CCC(=O)O[C@H]1CCC2C3CCC4=CC(=O)CC[C@]4(C)C3CC[C@@]21C (stereo not given in full)', 'false'),
  ('CC(=O)[C@H]1CCC2C3CCC4=CC(=O)CC[C@]4(C)C3CC[C@@]21C (stereo not given in full)', 'false');

---

- assay text: chemical genetic growth profiling, strain panel (AID 1159580);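 also: tested at 20 µM; growth read once vehicle control cultures reached saturation at 30 °C; 1 = growth at the plate median or of vehicle wells; lower values mean less growth of the strain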
- applied conditions: S. cerevisiae deletion strains, growth OD, locus YGR092W, strain DBF2, active compounds read low
Hit rate of the full screen: of about 5,500 compounds, about 2,000 (36%) were called active. Not shown: some 18% with an inconclusive outcome. This is one part of the list.
Binning of normalized growth into classes: bin 1 (below 0.6), bin 2 (0.6 to below 0.9), bin 3 (0.9 or more)

INSERT INTO assay_data (compound, class_assignment) VALUES
  ('O=C(Oc1ccc(C(F)(F)F)cc1[N+](=O)[O-])c1cccc(Cl)c1', 'bin 1'),
  ('Cc1ccc(OCC2SCCN2C(=O)c2ccc(C(F)(F)F)cc2)c([N+](=O)[O-])c1 (configuration not stated)', 'bin 3'),
  ('Nc1ccccc1SCc1c(Cl)cccc1Cl', 'bin 2'),
  ('N#CC(C#N)=C(SCc1c(Cl)cccc1Cl)SCc1c(Cl)cccc1Cl', 'bin 3'),
  ('CSC1=NNC(c2nn(C)cc2Cl)S1 (configuration not stated)', 'bin 1'),
  ('Cc1cc(NNC(=O)c2ccccc2Cl)nc2c1c(C)nn2C', 'bin 3'),
  ('Cc1cc(Cl)ccc1NNC(=O)c1snnc1C', 'bin 2'),
  ('Cc1nnsc1C(=O)NNc1ccc(F)cc1F', 'bin 2'),
  ('COc1ccc(NNC(=O)c2sc3ccccc3c2Cl)cc1', 'bin 1');

---

- assay text: chemical genetic growth profiling, strain panel (AID 1159580);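 also: tested at 20 µM; growth read once vehicle control cultures reached saturation at 30 °C; 1 = growth at the plate median or of vehicle wells; lower values mean less growth of the strain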
- applied conditions: S. cerevisiae deletion strains, growth OD, locus YOR270C, strain vph1, active compounds read low
Among all 5,500 compounds or so, about 2,000 (36%) were called active. About 18% were inconclusive and are not listed. Some of the results follow.
In this section we review reported normalized growth values for a set of compounds.
observable: normalized growth

INSERT INTO measurements (compound, observable, experimental_result) VALUES
  ('CC(N)CCCC(C)(C)O (stereo unspecified)', 'normalized growth', 0.989),
  ('COc1cc2c(cc1OC)[C@@H]1C(=O)c3ccc4oc(C(C)C)cc4c3O[C@@H]1CO2', 'normalized growth', 1.07),
  ('COc1ccc2c(c1)O[C@@H]1COc3cc(OC)c(OC)cc3[C@@H]1C2=O', 'normalized growth', 0.593),
  ('S=c1nc[nH]c2nc[nH]c12', 'normalized growth', 1.09),
  ('COc1ccc2c(c1OC)C(=O)O[C@@H]2[C@H]1c2cc3c(cc2CCN1C)OCO3', 'normalized growth', 1.01),
  ('CN1CCC(=C2c3ccccc3CC(=O)c3sccc32)CC1', 'normalized growth', 0.98),
  ('COc1cc2c(cc1OC)[C@@H]1C(=O)c3ccc(OC)c(CC=C(C)C)c3O[C@@H]1CO2', 'normalized growth', 1.06),
  ('COc1cc2c(cc1OC)[C@@H]1C(=O)c3ccc(O)c(CC=C(C)C)c3O[C@@H]1CO2', 'normalized growth', 0.971),
  ('CN1CCC(=C2c3ccccc3CCc3sccc32)CC1', 'normalized growth', 0.872),
  ('COc1ccc2c(c1OC)C(=O)O[C@H]2[C@H]1c2cc3c(cc2CCN1C)OCO3', 'normalized growth', 0.998),
  ('CCOC(=O)C(Cc1ccc(O)cc1)NC(C)=O (stereo unspecified)', 'normalized growth', 1);
